These measurements were taken from paper PMC5540273.

- System: CDK9
- Experimental conditions: concentration: 1 μM, replicates: in singlicate; n = 1;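 further: KINOMEscan kinase panel screen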
Test readout: %Inh (%)
Reply numerically in %, unit not repeated.

Worked examples, 8 compounds total:
# Compound, Test readout, Value
measured = [
    ("CC(C)(C)c1ccc2nccc(Nc3cccc(O)c3)c2c1", "%Inh", 0),
    ("COc1cc(Nc2nccc(N3CCC(NC(=O)c4cc5ccccc5s4)C3)n2)cc(OC)c1OC (stereo not shown)", "%Inh", 5),
    ("FC(F)(F)c1ccc(/C=C/c2cncnc2Nc2ccc3[nH]c(Cc4ccccc4)nc3c2)cc1", "%Inh", 0),
    ("Cc1ccc(C)c(NC(=O)NC2CCN(c3ccnc(Nc4ccc(F)cc4)n3)C2)c1 (stereo not shown)", "%Inh", 0),
    ("Cn1cc(-c2ccc3c(c2)CCN3C(=O)Cc2cccc(F)c2)c2c(N)ncnc21", "%Inh", 7),
    ("Cl.Cl.NCC(C(=O)Nc1cc(Br)c(-c2ccnc3[nH]ccc23)s1)c1ccccc1 (stereo not shown)", "%Inh", 3),
    ("O=C(NC1CCN(c2ccnc(Nc3ccc(F)cc3)n2)C1)c1cc2ccccc2s1 (stereo not shown)", "%Inh", 6),
    ("Cl.Cl.NCC(NCc1ccc(-c2ccnc3[nH]ccc23)s1)c1ccccc1 (stereo not shown)", "%Inh", 0),
]

Entry `COc1cc(Nc2nccc(-c3c(-c4cccc(NC(=O)c5c(F)cccc5F)c4)nn4ccccc34)n2)cc(OC)c1OC` , %Inh reported as 0

Recorded result, `O=c1[nH]cc(-c2ccc(N3CCOCC3)cc2)c2sc(-c3cn[nH]c3)cc12` , %Inh: 71

* * *

- Test system: ALK
- Experimental conditions: concentration: 1 μM, replicates: in singlicate; n = 1
Test readout: %Inh (%)
Provide only the numeric value, understood in %.

# Compound, Tgt, %Inh, %
data = [
    ("Nc1ncc(-c2ccc3nccc(-c4ccncc4)c3c2)cc1S(=O)(=O)N1CCOCC1", "ALK", 30),
]

The recorded %Inh for entry O=C(NC1CCN(c2ccnc(Nc3ccc(F)cc3)n2)C1)c1cc2ccccc2s1 (centres unmarked) equals 3

Per the record, `COc1cccc(-c2ccc3c(NC(=O)C4CC4)n[nH]c3n2)c1` has %Inh of 29

Data point: `Cn1cc(-c2ccc3c(c2)CCN3C(=O)Cc2cccc(F)c2)c2c(N)ncnc21` ; %Inh = 20

Value of measured %Inh for the entry `COc1cc(Nc2nccc(-c3c(-c4cccc(NC(=O)c5c(F)cccc5F)c4)nn4ncccc34)n2)cc(OC)c1OC` : 20

Value of measured %Inh for the entry `Clc1ccc(-c2nn3ncccc3c2-c2ccnc(Nc3ccc4c(c3)OCCO4)n2)cc1` : 0

# %Inh (compound: COc1cc(Nc2nccc(N3CCC(NC(=O)Nc4cccc(C(C)=O)c4)C3)n2)cc(OC)c1OC (centres unmarked) ) is 44

In plain terms, NCCCC(NC(=O)c1cc(Br)c(-c2ccnc3[nH]ccc23)s1)c1ccccc1.O=C(O)C(F)(F)F.O=C(O)C(F)(F)F (centres unmarked) has a documented %Inh of 32

* * *

Listed below: %Inh values for each entry.
- System: TAOK1
- Experimental conditions: concentration: 1 μM, replicates: in singlicate; n = 1
Give just the numeric value; % need not be written.

Solved entries:
# Structure notation, Tgt, %Inh, %
records = [
    ("CCn1c(-c2nonc2N)nc2c(C#CC(C)(C)O)ncc(OCCCCN)c21.O=C(O)C(F)(F)F.O=C(O)C(F)(F)F", "TAOK1", 40),
    ("O=C(Nc1cccc(-c2nn3ncccc3c2-c2ccnc(Nc3ccccc3)n2)c1)c1c(F)cccc1F", "TAOK1", 90),
]

Value of %Inh reported for the molecule `CSc1cccc2c(-c3ccncn3)c(-c3ccc(F)cc3)nn12` is 0

Input `CN(C)S(=O)(=O)c1cc(-c2ccc3nccc(-c4cccc(S(N)(=O)=O)c4)c3c2)cnc1N` . Output %Inh: 18
